Exercise: for every item that follows, state its recorded inhibition.
Experiment: growth inhibition of non-replicating M. tuberculosis (AID 488890);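 note: plate controls were DMSO cells for no effect and high antibiotic wells for full effect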
Conditions: Mycobacterium tuberculosis non-replicating, at 25 µM, stronger effect = higher value
In all, about 320,000 compounds went through this assay and about 1,300 (0.41%) were called active. Not shown: some 3% with an inconclusive outcome. Not all results are given here. Results with a measured potency or affinity are listed apart.
Provide the reading as a plain figure in %.

# input Look up inhibition for this compound: Cn1nc(-c2ccccn2)nc2c(=O)n(C)c(=O)nc1-2
# output 74.7

# input I am curious: what inhibition value has been reported for COC(=O)C1ON2OC(C(=O)OC)C(C(=O)OC)C2C1CC(C)=O (stereo unspecified) ?
# output -1.62

# input Could you tell me which inhibition is on file for COC(=O)c1nn(-c2cccc(C)c2)c2nnc(Cc3ccc(C)cc3)c(=O)n12 ?
# output -0.72

# input Query (compound): O=C(CCc1ccccc1)NCc1ccncc1 ; field requested: inhibition
# output 7.15

# input I have this compound here, CC1=C(C(=O)Nc2ccccc2C(F)(F)F)C(c2sccc2C)NC(=S)N1 (stereo unspecified) , and I need its recorded inhibition.
# output -0.9

# input Which inhibition reading was recorded for the compound O=C(COC(=O)c1ccc(Br)o1)Nc1nc2ccccc2s1 ?
# output 71.5

# input Quick one: inhibition for COc1cccc2cc(-c3ccccc3)c(=O)oc12 ?
# output 54.4

# input Would you kindly share the measured inhibition for O=C(NCc1ccco1)c1cccnc1-c1nc2ccccc2s1 ?
# output 27.7

# input Query (compound): Oc1ccc2ccccc2c1CN1CCCC1 ; field requested: inhibition
# output 21.4

# input Item COc1ccc(-c2c([C@H]3[C@H]4C=CC[C@@H](C)[C@@H]4C(=O)N3Cc3ccccc3)ccc3ccccc23)cc1OC has what recorded inhibition?
# output 60.8

# input For Cc1ccc2ncnc(Nc3ccc(C)c(C)c3)c2c1 , what is its reported inhibition?
# output 17.8

These measurements were taken from PubChem BioAssay AID488890.
